The entries below come with measured AC26 values attached.
System: D54 ERlucT glycosylation luciferase reporter, luminescence, 24 h
experiment notes: N-linked glycosylation inhibitors, luciferase reporter, dose response, D54 ERlucT cells, luminescence, cherry-picks (AID 624491);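 note: signal gain reflects blocked N-linked glycosylation of a luciferase reporter; actives raise luciferase signal so AC26 marks activators of the reporter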
assay readout: AC26

>  <compound>
CCN(CC)S(=O)(=O)c1cccc(NC(=O)CN2C(=O)NC3(CCC(C)CC3)C2=O)c1 (stereo not given)

>  <assay readout>
AC26

>  <assay result>
0.876 µM

$$$$
>  <compound>
COc1ccc2nc(SCC(=O)NC3CCCC3)c(C)cc2c1

>  <assay readout>
AC26

>  <assay result>
10.2 µM

$$$$
>  <compound>
Cc1cccn2c(=O)c3cc(C(=O)NCCN4CCOCC4)c(=N)n(CCc4ccccc4)c3nc12

>  <assay readout>
AC26

>  <assay result>
8.76 µM

$$$$
>  <compound>
CCOc1ccccc1NC(=O)CN(c1ccc(OC)cc1)S(=O)(=O)c1c(C)noc1C

>  <assay readout>
AC26

>  <assay result>
4.15 µM

$$$$
>  <compound>
Cc1ccc(S(=O)(=O)NC2=C(N3CCN(Cc4ccccc4)CC3)C(=O)c3ccccc3C2=O)cc1

>  <assay readout>
AC26

>  <assay result>
3.81 µM

$$$$
>  <compound>
Cn1cnc(Sc2ncnc3nc[nH]c23)c1[N+](=O)[O-]

>  <assay readout>
AC26

>  <assay result>
1.14 µM

$$$$
>  <compound>
FC(F)(F)c1cccc(Sc2nc(-c3ccccc3)nnc2C(F)(F)F)c1

>  <assay readout>
AC26

>  <assay result>
2.34 µM

$$$$
>  <compound>
Clc1cccc(Cl)c1Cn1cnc2c(NCc3ccco3)ncnc21

>  <assay readout>
AC26

>  <assay result>
17.3 µM

$$$$
>  <compound>
CCOc1ccc(NC(=O)c2cc(OC)nc3ccccc23)cc1

>  <assay readout>
AC26

>  <assay result>
0.284 µM

$$$$
>  <compound>
Cc1cccc(Nc2nc(N)nc(-c3oc4ccccc4c3C)n2)c1

>  <assay readout>
AC26

>  <assay result>
7.05 µM

$$$$

* * *

Test system: D54 ERlucT glycosylation luciferase reporter, luminescence, 24 h
experiment notes: N-linked glycosylation inhibitors, luciferase reporter, dose response, D54 ERlucT cells, luminescence, cherry-picks (AID 624491);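 note: signal gain reflects blocked N-linked glycosylation of a luciferase reporter; actives raise luciferase signal so AC26 marks activators of the reporter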

>  <molecule>
O=C(CN1CCC(O)(c2cccc(F)c2)CC1)NCCc1c[nH]c2ccccc12

>  <AC26>
1150 nM

$$$$
>  <molecule>
COc1ccc(Nc2cc(C)nc3ccc(OC)cc23)cc1

>  <AC26>
1830 nM

$$$$
>  <molecule>
CCOc1ccc2[nH]c(C(=O)N/N=C/c3cc(OC)c(OC)c(OC)c3)cc2c1

>  <AC26>
1320 nM

$$$$
>  <molecule>
Cc1nc(Nc2nc(-c3ccccc3)cc(=O)[nH]2)nc2ccccc12

>  <AC26>
1690 nM

$$$$
>  <molecule>
CN1CCc2nc3sc(C#N)c(N)c3c(-c3cccs3)c2C1

>  <AC26>
261 nM

$$$$
>  <molecule>
COc1cccc(CNC(=O)COC(=O)c2ccc(-c3ccc(O)cc3)cc2)c1

>  <AC26>
685 nM

$$$$
>  <molecule>
CCOc1ccc(NC(=S)NC(=O)/C=C/c2ccc(C)cc2)c([N+](=O)[O-])c1

>  <AC26>
3930 nM

$$$$
>  <molecule>
COc1ccccc1N=CC1=C(O)CC(c2ccccc2)CC1=O (stereo unspecified)

>  <AC26>
2740 nM

$$$$
>  <molecule>
CCC(Cc1ccccc1)NC(=O)c1ccc2nc(N3CCOCC3)sc2c1 (stereo unspecified)

>  <AC26>
1250 nM

$$$$
>  <molecule>
Cc1cc(C)c2c(c1)cc(C)c1nnc(SCC(=O)Nc3cc(C)on3)n12

>  <AC26>
12000 nM

$$$$
>  <molecule>
COc1cc2c(C#N)c(N3CCc4ccccc4C3)nc(N)c2c(N)n1

>  <AC26>
6220 nM

$$$$
